Reference for the values: patent US20080021069A1

target.entity: human GPR40 (Homo sapiens, UniProt O14842)
Construct: expressed in transfected cells; host or cells: CHO(dhfr-) cells: line CHO-hGPR40 No. 104 of WO2004/041266, with a stably expressed NFAT-TA-Luc reporter (CHO(dhfr-)/GPR40-NFAT-Luc)
Sequence (O14842 whole entry): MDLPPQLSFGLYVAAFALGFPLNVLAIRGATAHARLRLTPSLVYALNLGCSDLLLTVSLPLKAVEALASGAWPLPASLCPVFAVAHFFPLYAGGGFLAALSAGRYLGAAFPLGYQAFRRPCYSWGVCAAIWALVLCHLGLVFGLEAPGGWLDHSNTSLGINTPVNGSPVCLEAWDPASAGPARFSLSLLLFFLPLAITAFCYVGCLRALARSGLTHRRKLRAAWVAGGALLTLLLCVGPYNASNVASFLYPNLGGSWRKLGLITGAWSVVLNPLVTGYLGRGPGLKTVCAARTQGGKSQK
test: GPR40 antagonist activity with changes in intracellular calcium concentration as index (NFAT-luciferase reporter, CHO(dhfr-)/GPR40-NFAT-Luc cells)
Format: cell-based
condition.info: CHO cell line expressing human GPR40, NFAT-Luc reporter; GPR40 agonist 3-(4-((6-benzyloxy-2',6'-dimethyl-biphenyl-3-yl)methoxy)phenyl)propanoic acid 40 nM; 4 hr culture; 0.1% fatty acid-free BSA
pIC50: −log10 of the molar value. Where a name gives a salt, the structure may show the parent alone.
outcome.measure: pIC50

Inquiry: Fill in reported pIC50 for this entry: CCOc1ccc(-n2c(SCc3ccc(Cl)cc3)nc3cc(Cl)ccc32)cc1 [Example 65, hydrochloride]
Reply text: > 7.00

Inquiry: For the molecule CCOc1ccc(-n2c(NCc3ccc(Cl)cc3)nc3cc(Cl)c(Cl)cc32)cc1 [Example 94] , give its reported pIC50.
Reply text: > 7.00

Inquiry: Assign pIC50 to the following record: CCCCOc1ccc(-n2c(SCc3ccc(Cl)cc3)nc3cc(Cl)c(Cl)cc32)cc1 [Example 113]
Reply text: > 7.00

Inquiry: Specify pIC50 for CCCOc1ccc(-n2c(NCc3ccc(Cl)cc3)nc3ccc(Cl)cc32)cc1 [Example 74] and stop.
Reply text: > 7.00

###

Parameter: melting point. Scope: all listed entries.

COCc1ccc(-n2c(SCc3ccc(Cl)cc3)nc3ccc(Cl)cc32)cc1 [Example 116]	97 to 98 °C
CC(C)(C)c1ccc(CNc2nc3cc(Cl)c(Cl)cc3n2-c2ccc(OCC(F)(F)F)cc2)cc1 [Example 102]	136 to 137 °C
FC(F)(F)COc1ccc(-n2c(NCc3ccc(Br)cc3)nc3cc(Cl)ccc32)cc1 [Example 90]	146 to 147 °C
CCCCOc1ccc(-n2c(NCc3ccc(Br)cc3)nc3ccc(Cl)cc32)cc1 [Example 77]	123 to 124 °C
CCOc1ccc(-n2c(NCc3ccc(Cl)cc3)nc3cc(Cl)c(Cl)cc32)cc1 [Example 94]	141 to 142 °C

Inquiry: Supply recorded melting point for CCCCOc1ccc(-n2c(NCc3ccc(Br)cc3)nc3cc(Cl)ccc32)cc1 [Example 88] here.
Reply text: 95 to 96 °C

Inquiry: Report melting point, nothing else, for this compound: CCCCOc1ccc(-n2c(NCc3ccc(C(C)(C)C)cc3)nc3cc(Cl)ccc32)cc1 [Example 86]
Reply text: 158 to 159 °C

Inquiry: Tell me measured melting point for COc1ccccc1-n1c(SCc2ccc(Cl)cc2)nc2ccc(Cl)cc21 [Example 18] please.
Reply text: 124 to 125 °C

Inquiry: Give the reported value of melting point for this record: CCOc1ccc(-n2c(SCc3ccc(C(=O)OC)cc3)nc3ccc(Cl)cc32)cc1 [Example 37]
Reply text: 107 to 109 °C

Inquiry: Look up and state reported melting point for CC(C)(C)c1ccc(CNc2nc3ccc(Cl)cc3n2-c2ccc(OCC(F)(F)F)cc2)cc1 [Example 78]
Reply text: 151 to 152 °C

Inquiry: Write down melting point measured for item CCOc1ccc(-n2c(SCc3ccc(Cl)cc3)nc3ccc(Cl)cc32)cc1 [Example 10]
Reply text: 129 to 130 °C

Inquiry: Using known records, supply melting point for Clc1ccc(CSc2nc3ccc(Cl)cc3n2-c2ccc(OCc3ccccc3)cc2)cc1 [Example 119]
Reply text: 193 to 194 °C

Inquiry: Return melting point for the following compound: COc1cccc(-n2c(SCc3ccc(Cl)cc3)nc3ccc(Cl)cc32)c1 [Example 17]
Reply text: 100 to 101 °C

Inquiry: Supply measured melting point of COCOc1ccc(-n2c(SCc3ccccn3)nc3ccc(Cl)cc32)cc1 [Example 55] in your reply.
Reply text: 95 to 96 °C

###

Reported melting point by item:

Examples with answers:
FC(F)(F)COc1ccc(-n2c(NCc3ccc(Cl)cc3)nc3cc(Cl)ccc32)cc1 [Example 91]	138 to 139 °C
COCOc1ccc(-n2c(SCc3ccc(Br)cc3)nc3ccc(Cl)cc32)cc1 [Example 8]	123 to 124 °C
COc1ccc(-n2c(SCc3ccc(Cl)cc3)nc3ccc(Cl)cc32)cn1.Cl	80 to 86 °C

Inquiry: Tell me measured melting point for CCCOc1ccc(-n2c(NCc3ccc(Cl)cc3)nc3cc(Cl)ccc32)cc1 [Example 85] please.
Reply text: 122 to 123 °C

Inquiry: Quick one: give measured melting point for CC(C)Oc1ccc(-n2c(SCc3ccc(Cl)cc3)nc3ccc(Cl)cc32)cc1 [Example 23]
Reply text: 102 to 103 °C

Inquiry: Return the recorded melting point value; entry: CCOc1ccc(-n2c(NCc3ccc(C(C)(C)C)cc3)nc3ccc(Cl)cc32)cc1.Cl [Example 70]
Reply text: 188 to 189 °C

Inquiry: Determine from records and report melting point for COc1ccc(-n2c(SCc3ccc(Cl)cc3)nc3ccc(Cl)cc32)cc1 [Example 1]
Reply text: 116 to 117 °C

Inquiry: Tell me measured melting point for CCOCc1ccc(-n2c(SCc3ccc(Cl)cc3)nc3ccc(Cl)cc32)cc1 [Example 117] please.
Reply text: 95 to 96 °C

Inquiry: Tell us which melting point value is on record for Clc1ccc(CSc2nc3ccc(Cl)cc3n2-c2ccccn2)cc1 [Example 130]
Reply text: 107 to 108 °C

###

outcome.measure: melting point

Past entries and their recorded results:
CC(C)(C)c1ccc(CNc2nc3ccc(Cl)cc3n2-c2ccc(OC(F)(F)C(F)F)cc2)cc1.Cl	130 to 133 °C
CCOc1ccc(-n2c(NCc3ccc(Cl)cc3)nc3ccc(Cl)cc32)cc1	135 to 136 °C
COCOc1ccc(-n2c(SCc3ccc(Cl)cc3)nc3ccc(Cl)cc32)cc1	109 to 110 °C

# evaluate next
Inquiry: # return recorded melting point for entry CON(C)C(=O)c1ccc(-n2c(SCc3ccc(Cl)cc3)nc3ccc(Cl)cc32)cc1
Reply text: 125 to 126 °C

###

Item-by-item account of melting point

O=C(NCCO)c1ccc(-n2c(SCc3ccc(Cl)cc3)nc3ccc(Cl)cc32)cc1	185 to 186 °C
COCCOc1ccc(-n2c(SCc3ccc(Cl)cc3)nc3ccc(Cl)cc32)cc1	88 to 90 °C
CC(C)Oc1ccc(-n2c(SCc3ccc(Cl)cc3)nc3cc(Cl)c(Cl)cc32)cc1	149 to 150 °C
Cl.Clc1ccc(CSc2nc3cc(Cl)ccc3n2-c2ccc(OCC3CC3)cc2)cc1	118 to 126 °C
FC(F)(F)Oc1ccc(-n2c(SCc3ccc(Cl)cc3)nc3cc(Cl)c(Cl)cc32)cc1	111 to 112 °C
COc1ccc(-n2c(NCc3ccc(C(C)(C)C)cc3)nc3ccc(Cl)cc32)cc1	208 to 209 °C

Inquiry: Fill in melting point for record CCCOc1ccc(-n2c(NCc3ccc(Br)cc3)nc3cc(Cl)ccc32)cc1
Reply text: 112 to 113 °C

###

This listing pairs compounds with measured melting point.

Inquiry: Look up and report measured melting point for this entry: CCOc1ccc(-n2c(SCc3ccc(Cl)cc3)nc3cc(Cl)c(Cl)cc32)cc1 [Example 111]
Reply text: 131 to 132 °C

Inquiry: # return recorded melting point for entry CCCCOc1ccc(-n2c(NCc3ccc(Cl)cc3)nc3cc(Cl)ccc32)cc1 [Example 87]
Reply text: 100 to 101 °C

Inquiry: Answer with the recorded melting point of CC(C)(C)c1ccc(CNc2nc3cc(Cl)c(Cl)cc3n2-c2ccc(OC(F)(F)F)cc2)cc1 [Example 105] only.
Reply text: 158 to 159 °C

Inquiry: Answer with reported melting point of CCCCOc1ccc(-n2c(NCc3ccc(Br)cc3)nc3cc(Cl)c(Cl)cc32)cc1 [Example 100]
Reply text: 161 to 162 °C

Inquiry: // fetch melting point given entry CCC(=O)c1ccc(-n2c(SCc3ccc(Cl)cc3)nc3ccc(Cl)cc32)cc1 [Example 40]
Reply text: 176 to 177 °C

Inquiry: Indicate the recorded melting point value for this compound: COc1ccc(-n2c(SCc3ccccc3)nc3ccc(Cl)cc32)cc1 [Example 21]
Reply text: 89 to 90 °C

Inquiry: # return recorded melting point for entry CCOc1ccc(-n2c(NCc3ccc(Cl)cc3)nc3cc(Cl)ccc32)cc1 [Example 82]
Reply text: 109 to 110 °C

###

outcome.measure: melting point

Illustrative cases are given below, each with its answer.
CCCOc1ccc(-n2c(SCc3ccc(Cl)cc3)nc3ccc(Cl)cc32)cc1	102 to 103 °C
CCCOc1ccc(-n2c(SCc3ccc(Cl)cc3)nc3cc(Cl)c(Cl)cc32)cc1	119 to 120 °C
CCCCOc1ccc(-n2c(NCc3ccc(Cl)cc3)nc3ccc(Cl)cc32)cc1	122 to 123 °C
FC(F)(F)Oc1ccc(-n2c(SCc3ccc(Cl)cc3)nc3ccc(Cl)cc32)cc1	88 to 89 °C

Inquiry: Supply reported melting point belonging to this compound: COc1ccc(-n2c(SCc3ccc(Cl)cc3)nc3ccc(OC)cc32)cc1
Reply text: 80 to 81 °C

Inquiry: Please list melting point recorded for the compound CCCOc1ccc(-n2c(SCc3ccc(Cl)cc3)nc3cc(Cl)ccc32)cc1.Cl
Reply text: 104 to 112 °C

Inquiry: Given the compound COc1ccc(CSc2nc3ccc(Cl)cc3n2-c2ccc(OC)cc2)cc1 , write its reported melting point.
Reply text: 119 to 120 °C

Inquiry: Give the value of melting point reported for the following: CCCOc1ccc(-n2c(NCc3ccc(Cl)cc3)nc3cc(Cl)c(Cl)cc32)cc1
Reply text: 166 to 167 °C

Inquiry: # return recorded melting point for entry CCOC(=O)c1ccc2c(c1)nc(SCc1ccc(Cl)cc1)n2-c1ccc(OCC)cc1
Reply text: 133 to 134 °C

Inquiry: Dear colleague, please send me the reported melting point for CCOCOc1ccc(-n2c(SCc3ccc(Br)cc3)nc3ccc(Cl)cc32)cc1 when you can.
Reply text: 145 to 146 °C

Inquiry: # return recorded melting point for entry CCCOc1ccc(-n2c(NCc3ccc(C(C)(C)C)cc3)nc3cc(Cl)c(Cl)cc32)cc1
Reply text: 122 to 123 °C
